# system: D2 receptor (Homo sapiens (Human))
# Sequence (P14416 whole entry): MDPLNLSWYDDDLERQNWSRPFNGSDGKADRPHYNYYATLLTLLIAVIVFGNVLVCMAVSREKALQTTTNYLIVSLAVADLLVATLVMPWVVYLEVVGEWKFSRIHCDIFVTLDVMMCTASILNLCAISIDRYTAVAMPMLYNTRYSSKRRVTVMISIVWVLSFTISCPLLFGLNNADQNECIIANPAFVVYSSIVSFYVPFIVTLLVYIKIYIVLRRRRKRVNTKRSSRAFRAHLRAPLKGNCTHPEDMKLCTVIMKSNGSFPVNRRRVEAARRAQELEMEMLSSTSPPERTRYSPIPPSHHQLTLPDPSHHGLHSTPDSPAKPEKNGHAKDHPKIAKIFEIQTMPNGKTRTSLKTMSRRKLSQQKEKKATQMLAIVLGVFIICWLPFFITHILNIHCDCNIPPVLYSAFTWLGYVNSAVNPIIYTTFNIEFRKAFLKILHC
# assay.explanation: D2 radioligand binding assay
pKi: −log10 of the molar value.
reported.property: pKi

>>> result("CC1(Oc2ccc(Cl)cc2)CCCN(CCOc2ccccc2F)C1 (stereo not shown) [Example 98a]")
"> 7.00"
>>> result("CC1(Oc2ccc(Cl)cc2)CCN(CCn2ccccc2=O)C1 (stereo not shown) [Compound 7]")
"4.52 to 5.00"
>>> result("CC1(Oc2ccc(C(F)(F)F)cc2)CCN(CCOc2ccccc2)C1 (stereo not shown) [Example 54]")
"5.00 to 6.00"

# batch: return pKi for each of the 2 molecules below
1. CC(=O)NC1(C)CCN(C[C@H]2COc3ccccc3O2)CC1 [Compound 208]
2. CC1(O)CCN(CC2COc3ccccc3O2)CC1 (stereo not shown) [Compound 140]

1. 6.00 to 7.00
2. 4.52 to 5.00
